test: Size exclusion chromatography, % aggregate fraction of ADC; type: physicochemical; conditions: hybridoma mAb conjugated with synthon CZ, Method A
Here, each record is paired with measured % Aggregates by SEC data.
Numeric only. Scale: %

| molecule | measurement |
| --- | --- |
| Ab14-CZ (conjugate) VH: EVKLQQSGDELVRPGASVKISCKASGYTFTSYSMHWVKERPGQGLEWIGAIFPIIGTTEYNQKFKGKATLTADKSSNTANMELSRLTSEDSAVYYCARVYLSYFDYWGQGVMVTVSS VL: DIQMTQSPSFLSASVGDRVTINCKASQNINKYLDWYQRKHGEAPKLLIYNTNNLQTGIPSRFSGSGSGTDYTLTISSLQPEDVATYFCLQHSSRYTFGAGTKLELK | 8.8 |

// switching to the query molecule
Query string: Data request, read-out % Aggregates by SEC, for Ab11-CZ (conjugate) VH: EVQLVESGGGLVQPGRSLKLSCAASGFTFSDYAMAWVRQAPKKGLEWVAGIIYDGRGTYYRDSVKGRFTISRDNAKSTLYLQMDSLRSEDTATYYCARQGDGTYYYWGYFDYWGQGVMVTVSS VL: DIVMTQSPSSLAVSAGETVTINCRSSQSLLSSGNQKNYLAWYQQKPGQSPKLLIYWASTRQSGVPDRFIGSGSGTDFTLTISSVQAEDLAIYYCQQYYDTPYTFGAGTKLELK
Result string: 4.2
